Can you tell me melting point for the items I'm about to list?

### Prompt Look up melting point for this molecule: COCc1cc(F)c(F)cc1C#CCCNc1ncnc2ccccc12 [compound 146]
### Response 121 to 125 °C

### Prompt Ok, now C(#Cc1csc(-c2ccco2)n1)CCNc1ncnc2sccc12 [compound 77]
### Response 53 to 55 °C

### Prompt Ok, now FC(F)(F)c1cccc(Oc2nc(C#CCCNc3ncnc4ccccc34)cs2)c1 [compound 219]
### Response 106 to 108 °C

### Prompt Ok, now FC(F)(F)c1ccccc1C#CCC(Nc1ncnc2ccccc12)c1ccccc1 (stereo not drawn) [compound 302]
### Response 150 to 152 °C

### Prompt Ok, now COC(=O)c1cccc(C#CCCNc2ncnc3sccc23)c1 [compound 30]
### Response 163 to 166 °C

### Prompt Ok, now C(#Cc1csc(-c2ccsc2)n1)CCNc1ncnc2sccc12 [compound 80]
### Response 55 to 56 °C

### Prompt Ok, now C(#Cc1ccccc1)CC(Nc1ncnc2ccccc12)c1ccccc1 (stereo not drawn) [compound 301]
### Response 141 to 143 °C

### Prompt Ok, now FC(F)(F)c1ccccc1C#CCCNc1ncnc2cc(Cl)ccc12 [compound 308]
### Response 153 to 154 °C

### Prompt Ok, now COc1ccc(C#CCCNc2ncnc3sccc23)cc1OC [compound 24]
### Response 182 to 184 °C

====

Readout label: melting point

### Prompt Look up melting point for this compound: "Clc1ccc(C#CCCNc2ncnc3ccccc23)c(Cl)c1"
### Response 182 to 183 °C

### Prompt Ok, now "FC(F)(F)c1ccc(C#CCCNc2ncnc3ccccc23)cn1"
### Response 134 to 139 °C

### Prompt Ok, now "C(#Cc1cscn1)CCNc1ncnc2sccc12"
### Response 174 °C

### Prompt Ok, now "Cc1scnc1C#CCCNc1ncnc2sccc12"
### Response 148 to 150 °C

### Prompt Ok, now "CCOC(=O)c1ccc(C#CCCNc2ncnc3ccccc23)cc1"
### Response 137 to 138 °C

### Prompt Ok, now "C(#Cc1ccccc1)CCNc1ncnc2ccccc12"
### Response 120 to 122 °C

### Prompt Ok, now "CCOC(=O)c1cnc(C#CCCNc2ncnc3ccccc23)s1"
### Response 113 to 114 °C

### Prompt Ok, now "C(#Cc1ccc2ccccc2c1)CCNc1ncnc2ccccc12"
### Response 159 to 160 °C

### Prompt Ok, now "CC(C)[Si](C#CCCNc1ncnc2sccc12)(C(C)C)C(C)C"
### Response 196 to 198 °C

### Prompt Ok, now "CCOC(=O)c1sc(C#CCCNc2ncnc3ccccc23)nc1C"
### Response 139 to 140 °C

### Prompt Ok, now "COCc1ccccc1C#CCCNc1ncnc2c(Cl)cc(Cl)cc12"
### Response 161 to 162 °C

### Prompt Ok, now "N#Cc1cccc(Oc2nc(C#CCCNc3ncnc4ccccc34)cs2)c1"
### Response 137 to 139 °C

### Prompt Ok, now "OCc1cnccc1C#CCCNc1ncnc2ccccc12"
### Response 182 to 186 °C

### Prompt Ok, now "FC(F)(F)c1ccccc1Oc1nc(C#CCCNc2ncnc3ccccc23)cs1"
### Response 159 to 161 °C

### Prompt Ok, now "COc1ccc(Cl)cc1C#CCCNc1ncnc2ccccc12"
### Response 147 to 149 °C

### Prompt Ok, now "CC(C)(C)[Si](C)(C)C#CCCNc1ncnc2sccc12"
### Response 190 to 192 °C

### Prompt Ok, now "C(#Cc1csc(-c2cccnc2)n1)CCNc1ncnc2sccc12"
### Response 175 to 177 °C

### Prompt Ok, now "COc1ccc(Oc2nc(C#CCCNc3ncnc4ccccc34)cs2)cc1"
### Response 150 to 152 °C

### Prompt Ok, now "OCc1ccc(C#CCCNc2ncnc3ccccc23)cc1"
### Response 69 to 71 °C

### Prompt Ok, now "Clc1ncnc(NCCC#Cc2ccccc2)c1Cl"
### Response 122 to 123 °C
